Every entry's value here was drawn from patent US10266513B2.

Examples of compounds with documented pIC50 follow.
Test system: Human B cells
Experiment: Human Primary B Cell Proliferation Assay (3H-thymidine incorporation, anti-human IgM stimulated)
Format: cell-based
Details: B-cell, purified human B cells, 50 μg/mL anti-human IgM F(ab')2, 72 hours
pIC50: −log10 of the molar value.

{"compound": "NC(=O)c1c(-c2ccc(Oc3cccc(C(F)(F)F)n3)cc2)nn([C@@H]2CCCN(C(=O)/C=C/C(F)F)C2)c1N", "target or system": "Human B cells", "pIC50": 9.04}
{"compound": "NC(=O)c1c(-c2ccc(Oc3cccc(C(F)(F)F)n3)cc2)nn([C@@H]2CCCN(C(=O)/C=C/CF)C2)c1N", "target or system": "Human B cells", "pIC50": 7.94}
{"compound": "C=CC(=O)N1CCC[C@@H](n2nc(-c3ccc(Oc4ccc(Cl)cn4)cc3)c(C(N)=O)c2N)C1", "target or system": "Human B cells", "pIC50": 7.62}
{"compound": "NC(=O)c1c(-c2ccc(Oc3ncc(Cl)cc3F)cc2)nn([C@@H]2CCCN(C(=O)/C=C/CF)C2)c1N", "target or system": "Human B cells", "pIC50": 8.60}
{"compound": "N#CN1CCC[C@@H](n2nc(-c3ccc(Oc4ccc(Cl)cn4)cc3)c(C(N)=O)c2N)C1", "target or system": "Human B cells", "pIC50": 8.80}
{"compound": "N#CN1CCCC(n2nc(-c3ccc(Oc4ccc(Cl)cc4)cc3)c(C(N)=O)c2N)C1 (single isomer, unassigned)", "target or system": "Human B cells", "pIC50": 8.77}
{"compound": "NC(=O)c1c(-c2ccc(Oc3cccc(C(F)(F)F)n3)cc2)nn([C@@H]2CCCN(C(=O)/C=C/CO)C2)c1N", "target or system": "Human B cells", "pIC50": 6.99}

* * *

Molecular target: human full-length BTK Kinase (Homo sapiens (Human))
Sequence (Q06187 whole entry): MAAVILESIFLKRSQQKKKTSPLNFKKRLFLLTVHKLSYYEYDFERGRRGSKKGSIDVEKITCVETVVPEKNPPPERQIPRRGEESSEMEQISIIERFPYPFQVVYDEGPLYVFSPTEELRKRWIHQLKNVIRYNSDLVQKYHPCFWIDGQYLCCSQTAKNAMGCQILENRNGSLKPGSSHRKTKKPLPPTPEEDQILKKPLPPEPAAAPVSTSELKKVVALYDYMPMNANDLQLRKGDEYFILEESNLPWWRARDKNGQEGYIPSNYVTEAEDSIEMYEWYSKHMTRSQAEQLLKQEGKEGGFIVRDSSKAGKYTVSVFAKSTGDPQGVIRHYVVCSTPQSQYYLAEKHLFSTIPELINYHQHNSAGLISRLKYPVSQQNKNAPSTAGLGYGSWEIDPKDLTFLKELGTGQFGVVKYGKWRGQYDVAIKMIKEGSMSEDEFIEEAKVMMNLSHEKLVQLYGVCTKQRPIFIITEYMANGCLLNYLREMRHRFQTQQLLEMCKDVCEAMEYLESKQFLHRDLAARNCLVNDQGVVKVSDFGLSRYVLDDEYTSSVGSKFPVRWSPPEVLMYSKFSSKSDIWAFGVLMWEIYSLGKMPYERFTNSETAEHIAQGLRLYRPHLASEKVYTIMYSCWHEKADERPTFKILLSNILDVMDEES
I'd appreciate it if you marked entries 1 (yes) when IC50 is lower than 2 nM and 0 (no) when it is not.

{"molecule": "N#CN1CCCC(n2nc(-c3ccc(Oc4ccc(Cl)cc4)cc3)c(C(N)=O)c2N)C1 (centres unmarked) [Example 13]", "target or system": "human full-length BTK Kinase (Homo sapiens (Human))", "discrete label": "0 (no)"}
{"molecule": "N#CN1CCCC(n2nc(-c3cccc(Oc4ccc(F)cc4)c3)c(C(N)=O)c2N)C1 (centres unmarked)", "target or system": "human full-length BTK Kinase (Homo sapiens (Human))", "discrete label": "0 (no)"}
{"molecule": "Cc1cc(Oc2ccc(-c3nn(C4CCCN(C#N)C4)c(N)c3C(N)=O)cc2)ccc1Cl (centres unmarked)", "target or system": "human full-length BTK Kinase (Homo sapiens (Human))", "discrete label": "1 (yes)"}
{"molecule": "N#CN1CCCC(n2nc(-c3ccc(Oc4cc(F)ccc4F)cc3)c(C(N)=O)c2N)C1 (centres unmarked)", "target or system": "human full-length BTK Kinase (Homo sapiens (Human))", "discrete label": "1 (yes)"}
{"molecule": "N#CN1CCCC(n2nc(-c3ccc(Oc4ccc(F)cn4)cc3)c(C(N)=O)c2N)C1 (centres unmarked)", "target or system": "human full-length BTK Kinase (Homo sapiens (Human))", "discrete label": "0 (no)"}
{"molecule": "N#CN1CCCC(n2nc(-c3ccc(Oc4ccc(F)cc4Cl)cc3)c(C(N)=O)c2N)C1 (centres unmarked) [Example 35]", "target or system": "human full-length BTK Kinase (Homo sapiens (Human))", "discrete label": "1 (yes)"}
{"molecule": "C=CC(=O)N1CCC[C@@H](n2nc(-c3ccc(Oc4ncc(Cl)cc4F)cc3)c(C(N)=O)c2N)C1", "target or system": "human full-length BTK Kinase (Homo sapiens (Human))", "discrete label": "1 (yes)"}
{"molecule": "N#CN1CCC[C@@H](n2nc(-c3ccc(Cc4ccccc4Cl)cc3)c(C(N)=O)c2N)C1", "target or system": "human full-length BTK Kinase (Homo sapiens (Human))", "discrete label": "1 (yes)"}
